B1: ELF3 (parent)
chain: RLVYKFGKNSSGWKEEEVLQSRN

# Variants of: B1
# Measurement notes: protein stability index of a GFP-peptide fusion (GPS, HEK-293T) (PSI 1-6); higher = more stable;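 also: lentivirally expressed fusions sorted by FACS into six bins by GFP to DsRed ratio, PSI derived from sequencing read proportions per bin multiplied by bin number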
# Run parameters: c terminus: native
Respond with label 1 for protein stability index values of 2 and above, label 0 for values below.

Is reported protein stability index greater than or equal to 2 here: `W13V`
label 1

Identify whether the reported protein stability index of the following variant is 2 or greater: `W13F`
label 1

# bool: protein stability index of `F6T` >= 2
label 1

Please indicate if the recorded protein stability index for `R1A` meets or exceeds 2.
label 1

Given the entry `E16N` , answer whether its protein stability index meets or surpasses 2.
label 1

Assess whether reported protein stability index for `R22D` sits at 2 or higher.
label 1

Does protein stability index meet or surpass 2 for `N9A` ?
label 0

Given the entry `G7K` , answer whether its protein stability index meets or surpasses 2.
label 0

Does the reported protein stability index for `E17K` fall at or above the 2 mark?
label 0

Hello, I need to know if `F6P` has measured protein stability index not below 2. Thanks!
label 1

Could you tell me if the measured protein stability index of `R1T` reaches 2 or more?
label 1

Confirm if protein stability index reported for the variant `V3D` is 2 or above.
label 1

Identify whether the reported protein stability index of the following variant is 2 or greater: `G12F`
label 0

For this variant, is measured protein stability index 2 or higher? `G7Q`
label 1

Could you verify whether the entry `E15I` shows protein stability index of no less than 2?
label 0

Check if protein stability index >= 2 (inclusive). Item: `L19N`
label 1

Does protein stability index meet or surpass 2 for `K8T` ?
label 1

Please check the record `E16I` and state if its protein stability index is at or above 2.
label 1

Threshold query (protein stability index >= 2) on `W13A`
label 1

Please indicate if the recorded protein stability index for `S21K` meets or exceeds 2.
label 1

Kindly determine if protein stability index recorded for `K5N` is above or exactly 2.
label 1

Reported protein stability index at or above 2? `R22Y`
label 1

Record `F6K` ; criterion: protein stability index no lower than 2. Met?
label 1

Test whether the variant `W13R` records protein stability index of 2 or higher.
label 1

Reported protein stability index reaches at least 2 for `E17D` ?
label 0

Decide: is the reported value of protein stability index for `S10F` equal to or greater than 2?
label 0

Entry `E17H` : is its protein stability index no less than 2?
label 0

Does `K5L` have a reported protein stability index of at least 2?
label 1

Textbook exercise: given the entry `N23P` , state whether its protein stability index is greater than or equal to 2.
label 1

Determine whether this variant has protein stability index no lower than 2: `S11D`
label 1

Quick check: does `K8P` have protein stability index greater than or equal to 2?
label 1

Dear colleague, could you confirm whether `V18C` has protein stability index at or above 2?
label 1

Check the entry `V18E` : does protein stability index equal or exceed 2?
label 1

# bool: protein stability index of `S10C` >= 2
label 1

Please tell me: is the variant `R1Y` at or over 2 in terms of protein stability index?
label 0

Please tell me: is the variant `N9M` at or over 2 in terms of protein stability index?
label 1

Hello, I need to know if `Y4G` has measured protein stability index not below 2. Thanks!
label 1

Assess whether reported protein stability index for `K14Y` sits at 2 or higher.
label 1

Determine whether measured protein stability index meets or exceeds 2 for `R1Q`
label 1

Determine whether measured protein stability index meets or exceeds 2 for `S10T`
label 1

Kindly determine if protein stability index recorded for `S10H` is above or exactly 2.
label 1

hey, is protein stability index for this one >= 2? `E15F`
label 1

Check the entry `N9E` : does protein stability index equal or exceed 2?
label 1

Is it the case that `G7H` has protein stability index reaching or exceeding 2?
label 0

Decide: protein stability index of `S11L` >= 2?
label 0

Hi team, for `S11H` , is the recorded protein stability index at or above 2?
label 0

Assess whether reported protein stability index for `V18W` sits at 2 or higher.
label 0

# check: protein stability index of `W13D` is greater than or equal to 2
label 1

Hi team, for `G7S` , is the recorded protein stability index at or above 2?
label 1

Answer whether protein stability index of `E16G` is greater than or equal to 2.
label 0

Could you verify whether the entry `L2N` shows protein stability index of no less than 2?
label 1

Textbook exercise: given the entry `L2I` , state whether its protein stability index is greater than or equal to 2.
label 1

Please tell me: is the variant `N9P` at or over 2 in terms of protein stability index?
label 1

State whether the measured protein stability index reaches 2, counting equality as reaching it, for `Q20T`
label 0

Does the variant `W13C` have recorded protein stability index that is 2 or more?
label 1

Does protein stability index meet or surpass 2 for `Q20N` ?
label 1

Could you please find out whether `F6S` has protein stability index that meets 2 or exceeds it?
label 1

Please check the record `G7Y` and state if its protein stability index is at or above 2.
label 1

Quick check: does `R1F` have protein stability index greater than or equal to 2?
label 1

protein stability index >= 2 for `S21C` ?
label 1

Confirm if protein stability index reported for the variant `R1I` is 2 or above.
label 0

Does the reported protein stability index for `G12P` fall at or above the 2 mark?
label 1

Given `K14Q` , state whether its protein stability index is at least 2.
label 1

// inclusive: protein stability index at least 2? input: `R22P`
label 1

Does protein stability index meet or surpass 2 for `R22N` ?
label 1

Is protein stability index for `V18P` at or above 2?
label 1

Exam item: decide whether the reported protein stability index for `Y4R` is at least 2.
label 0

Determine whether this variant has protein stability index no lower than 2: `R22F`
label 1

Say whether `S10A` shows protein stability index of 2 or more.
label 1

Check if protein stability index >= 2 (inclusive). Item: `L2Y`
label 0
